# System: EpiDerm™ EPI-200-MNA skin tissues
# test_settings: human
observed_property: top/maximum dose tested, limited by excessive or strong cytotoxicity (µg/cm^2)
// return numeric value only (unit: µg/cm^2, not printed)

Lab book: top/maximum dose tested, limited by excessive or strong cytotoxicity of "O=C1CN(/N=C/c2ccc([N+](=O)[O-])o2)C(=O)N1" noted as 48

Lab book: top/maximum dose tested, limited by excessive or strong cytotoxicity of Oc1cccc2cccnc12 [8-Hydroxyquinoline] noted as 48

Lab book: top/maximum dose tested, limited by excessive or strong cytotoxicity of "Cc1cn([C@H]2C[C@H](N=[N+]=[N-])[C@@H](CO)O2)c(=O)[nH]c1=O" noted as 700
